measured.on: ^NRR peptide
test.description: ITC
property.name: pKd
One number for each entry, as −log10 of the molar value.

Enquiry: Quick one: pKd for AtUBR4 ZZ domain (domain or fragment) SSVQYCCDGCSTVPILRRRWHCTVCPDFDLCEACYEVLDADRLPPPHTRDHPMTAIPI ?
Return: 4.72
